Target: Cytochrome P450 2C9 (Homo sapiens)
Assay: Cytochrome panel assay with activity outcomes; note: % is set by controls: 0 for no effect and ±100 for the full control effect
Conditions: recombinant CYP, pro-luciferin dealkylation, luminescence, p450-cyp2c9; series mostly up to 57.1 µM
About 4,000 (25%) of roughly 16,000 compounds were called active. About 26% were inconclusive and are not listed. A selection follows.
Endpoint: activity, negative = inhibition

A selection of reference data follows.
[[record]]
structure_string = "CC(=O)NCCNc1ncnc2ccc(-c3ccc4c(c3)OCO4)cc12"
observed = "5.09% [at 2.29 µM] (inactive)"

[[record]]
structure_string = "O=C(O)C[C@H](Cc1ccc2c(c1)OCO2)C(=O)O"
observed = "-23.6% [at 11.4 µM] (inactive)"

[[record]]
structure_string = "COc1ccc(NC(=S)Nc2ccccc2)cc1"
observed = "-15.3% [at 11.4 µM] (inactive)"

[[record]]
structure_string = "c1ccc(Nc2ncncc2-c2ccc3c(c2)OCO3)cc1"
observed = "-20.1% [at 2.29 µM] (inactive)"

[[record]]
structure_string = "Nc1ccn([C@H]2O[C@@H](COP(=O)(O)O)[C@@H](O)[C@H]2O)c(=O)n1"
observed = "-6.67% [at 11.4 µM] (inactive)"

[[record]]
structure_string = "COc1ccc2[nH]cc(CCNc3ncnc4ccc(-c5ccccc5CN(C)C)cc34)c2c1"
observed = "-13.9% [at 2.29 µM] (inactive)"


Record request: activity, negative = inhibition value, item "CC1(C)N=C(N)N=C(N)N1CCCCc1ccccc1"
1.42% [at 11.4 µM] (inactive)

Try the compound "COc1cccc(-c2ccc3ncnc(NCc4cnc(C)cn4)c3c2)c1"
-22.3% [at 2.29 µM] (inactive)

Lookup "C[C@H](c1ccccc1)N1C(=O)[C@H]2[C@@H]3[C@H](O)[C@H](O)CC(=O)[C@H]3CC[C@H]2C1=O"
20% [at 11.4 µM] (inactive)

Repeat for the following compound: "CO[C@@H]1COC(=O)CCC[C@@H](C)[C@H](OC)COC(=O)[C@H](Cc2ccccc2)NC(=O)C/C=C\[C@H]1C"
-2.4% [at 11.4 µM] (inactive)
